Biological target: hP2X2/3H (Homo sapiens, UniProt P56373+Q9UBL9)
Construct: expressed in transfected cells; host or cells: e.g. HEK293 or 1321N1
Sequence (Q9UBL9 whole entry): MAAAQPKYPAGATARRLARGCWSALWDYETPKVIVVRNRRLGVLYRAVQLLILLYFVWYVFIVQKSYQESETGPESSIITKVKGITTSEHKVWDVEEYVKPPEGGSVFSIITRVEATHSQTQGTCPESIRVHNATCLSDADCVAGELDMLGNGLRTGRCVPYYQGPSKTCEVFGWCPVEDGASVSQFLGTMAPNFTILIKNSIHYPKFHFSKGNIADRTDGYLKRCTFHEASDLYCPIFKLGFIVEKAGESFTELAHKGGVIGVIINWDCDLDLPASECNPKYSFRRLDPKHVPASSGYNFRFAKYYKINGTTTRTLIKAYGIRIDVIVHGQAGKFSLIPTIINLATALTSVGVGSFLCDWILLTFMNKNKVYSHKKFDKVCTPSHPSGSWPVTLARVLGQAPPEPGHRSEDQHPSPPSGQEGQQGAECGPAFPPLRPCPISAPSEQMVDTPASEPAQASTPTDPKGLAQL
Sequence (P56373 whole entry): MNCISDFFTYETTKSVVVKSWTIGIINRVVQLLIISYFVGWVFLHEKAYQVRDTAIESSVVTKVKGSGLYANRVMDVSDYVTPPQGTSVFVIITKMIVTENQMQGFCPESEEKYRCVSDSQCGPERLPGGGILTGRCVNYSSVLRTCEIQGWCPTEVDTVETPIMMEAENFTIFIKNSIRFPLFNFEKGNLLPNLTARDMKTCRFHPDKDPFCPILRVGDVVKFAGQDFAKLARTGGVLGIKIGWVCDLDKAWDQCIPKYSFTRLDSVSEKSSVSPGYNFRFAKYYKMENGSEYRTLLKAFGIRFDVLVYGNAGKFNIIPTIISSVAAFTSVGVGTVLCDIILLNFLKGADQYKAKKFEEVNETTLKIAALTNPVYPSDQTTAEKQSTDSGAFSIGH
Assay: Calcium uptake assay (P2X antagonist assay), P2X2/3 heteromer
Type: cell-based
Conditions: calcium uptake assay, hP2X2/3H; read-out: IC50 hP2X2/3H (nM), Ca Influx
Quantity Measured: IC50

INSERT INTO assay_data (molecule, target, val) VALUES
  ('Cc1ccc(-c2cc(C(=O)NCc3cnc(C)nc3)cc(C(=O)N3CCN(C)CC3)c2)cc1', 'hP2X2/3H (Homo sapiens, UniProt P56373+Q9UBL9)', '100 to 500 nM'),
  ('Cc1ccc(-c2cc(C(=O)NCc3ccc(C)nc3)cc(C(=O)N(C)C3CCNCC3)c2)cc1', 'hP2X2/3H (Homo sapiens, UniProt P56373+Q9UBL9)', '> 1000 nM'),
  ('Cc1ccc(-c2cc(C(=O)O)cc(C(=O)NCc3ccc(C)nc3)c2)cc1', 'hP2X2/3H (Homo sapiens, UniProt P56373+Q9UBL9)', '100 to 500 nM'),
  ('Cc1ccc(-c2cc(C(=O)NCc3cnc(C)nc3)cc(C(=O)N3CCCC3C(F)(F)F)c2)cc1 (centres unmarked)', 'hP2X2/3H (Homo sapiens, UniProt P56373+Q9UBL9)', '< 100 nM'),
  ('Cc1ccc(-c2cc(C(=O)NCc3cnc(C)nc3)cc(C(=O)N3CCCCC3)c2)cc1', 'hP2X2/3H (Homo sapiens, UniProt P56373+Q9UBL9)', '< 100 nM'),
  ('Cc1ccc(-c2cc(C(=O)NCc3ccc(C(F)(F)F)nc3)cc(C(=O)N3CC[C@@H](O)C3)c2)nc1', 'hP2X2/3H (Homo sapiens, UniProt P56373+Q9UBL9)', '< 100 nM'),
  ('CCCS(=O)(=O)c1cc(C(=O)NCc2cnc(C)nc2)cc(-c2ccc(C)cc2)c1', 'hP2X2/3H (Homo sapiens, UniProt P56373+Q9UBL9)', '< 100 nM'),
  ('COc1ncc(CNC(=O)c2cc(-c3ccc(C)cc3)cc(S(C)(=O)=O)c2)cn1', 'hP2X2/3H (Homo sapiens, UniProt P56373+Q9UBL9)', '100 to 500 nM'),
  ('Cc1ccc(CNC(=O)c2cc(-c3ccc(Cl)c(Cl)c3)cc(S(C)(=O)=O)c2)cn1', 'hP2X2/3H (Homo sapiens, UniProt P56373+Q9UBL9)', '> 1000 nM'),
  ('Cc1ccc(-c2cc(C(=O)NCc3ccc(Cl)c(S(=O)(=O)NC4CC4)c3)cc(C(=O)N3CCCC3)c2)cc1', 'hP2X2/3H (Homo sapiens, UniProt P56373+Q9UBL9)', '501 to 1000 nM'),
  ('Cc1ccc(-c2cc(C(=O)N[C@H](CO)c3ccc(C(F)(F)F)nc3)cc(C(=O)N3CCCC3)c2)cc1', 'hP2X2/3H (Homo sapiens, UniProt P56373+Q9UBL9)', '< 100 nM'),
  ('Cc1ccc(-c2cc(C(=O)N[C@H](CO)c3cnc(C)nc3)cc(C(=O)N3CCCC3)c2)cc1', 'hP2X2/3H (Homo sapiens, UniProt P56373+Q9UBL9)', '< 100 nM'),
  ('Cc1ccc(-c2cc(C(=O)N[C@H](C)c3ccc(C(F)(F)F)nc3)cc(S(C)(=O)=O)c2)nc1', 'hP2X2/3H (Homo sapiens, UniProt P56373+Q9UBL9)', '100 to 500 nM'),
  ('Cc1ccc(-c2cc(C(=O)N[C@H](C)c3ccc(C)nc3)cc(C(=O)N3CCN4CCCC4C3)c2)cc1 (some centres unmarked)', 'hP2X2/3H (Homo sapiens, UniProt P56373+Q9UBL9)', '< 100 nM'),
  ('Cc1ccc(-c2cc(C(=O)NCc3ccc(C)nc3)cc(C(=O)N3CC(O)C3)c2)c(C#N)c1', 'hP2X2/3H (Homo sapiens, UniProt P56373+Q9UBL9)', '< 100 nM'),
  ('Cc1ccc(-c2cc(C(=O)NCc3ccc(C(F)(F)F)nc3)cc(C(=O)N3CCCC3)c2)c(C#N)c1', 'hP2X2/3H (Homo sapiens, UniProt P56373+Q9UBL9)', '100 to 500 nM'),
  ('Cc1ccc(-c2cc(C(=O)NCc3cnc(C)nc3)cc(C(=O)N3CCCC3)c2)c(C#N)c1', 'hP2X2/3H (Homo sapiens, UniProt P56373+Q9UBL9)', '< 100 nM');
